Listed next: entries and their corresponding Selective index, MCF7.
- Tested on: MCF7 (human breast adenocarcinoma) cell line
- assayProtocol: MTT cytotoxicity assay, MCF7 cells
- experimentalConditions: ratio IC50 in Hek-293 to IC50 in MCF7
Kindly provide the number alone.

Illustrative cases are given below, each with its answer.
Cc1c2ccncc2c(C)c2c1[nH]c1ccccc12 [Ellipticine, ellipticine, reference compound]    2.68
O=C1OCC2=C1C(c1cc3ccccc3s1)C1=C(N2)C(=O)c2ccccc2C1=O (stereo not shown) [Compound 13g]    1.16
O=C1OCC2=C1C(c1ccsc1)C1=C(N2)C(=O)c2ccccc2C1=O (stereo not shown) [Compound 13a]    11.12

Consider now this further molecule.
Prompt line: Name the reported Selective index, MCF7 value associated with the molecule O=C1OCC2=C1C(c1cnc(Cl)s1)C1=C(N2)C(=O)c2ccccc2C1=O (stereo not shown) [Compound 13h]
Response line: 1.29
